melting point values for the compounds below.

According to the records, this compound "CC(=O)Nc1c(C(=O)c2cccc(F)c2)[nH]c2cc(Cl)ccc12" displays melting point of 201 to 202 °C

According to the records, this compound "C/N=C1\N(C)C(=O)C(=Cc2c[nH]c3ccccc23)N1C" displays melting point of 241 to 242 °C

According to the records, this compound CC(C)(CC(O)(Cn1cc(Cl)c(=O)c2sccc21)C(F)(F)F)c1cc(-c2cncnc2)cc2c1OCC2 (stereo not given) displays melting point of 218 to 219 °C

Others:
According to the records, this compound "CCOC(=O)c1nc2cc(F)ccc2nc1CC" displays melting point of 42 to 45 °C

According to the records, this compound C[C@@H]1S[C@@H](C(=O)Nc2ccc(CC3OC(=O)NC3=O)cc2)Cc2cc3c(cc2C1=O)OCO3 (stereo not given in full) displays melting point of 164 to 166 °C

According to the records, this compound "Cc1c(C#N)c(O)cc2nc(Cc3ccccc3)nn12" displays melting point of 319 to 320 °C

According to the records, this compound "CC(C)CC(=O)Nc1cc(-c2ccnc3c(C(=O)c4cccs4)cnn23)cs1" displays melting point of 234 to 235 °C

According to the records, this compound "CCC(CC)n1nc(C)c2c(Cl)nc(C)nc21" displays melting point of 33 to 34 °C

According to the records, this compound "Cc1[nH]nc(C(=O)NC2CCCC2)c1NC(=O)c1cnccn1" displays melting point of 170 to 171 °C

According to the records, this compound "Cc1nc2cc(NC(=O)c3cc4cc(F)cnc4n3Cc3ccncc3)ccc2n1C" displays melting point of 263 to 265 °C
